Taken from paper PMC3836757.

target: RNA polymerase core enzyme;sigma 32 (RpoH) (Escherichia coli;Ehrlichia chaffeensis) (UniProt P0A7Z4+P0A8V2+P0A8T7+P0A800+Q2GGG9); assay: EMSA; conditions: 50 mM Tris-acetate pH 8.0, 50 mM K-acetate, 8.1 mM Mg-acetate, 27 mM NH4-acetate, 100 ug/ml BSA, 5% glycerol, 50 ug/ml poly(dI-dC), 20 fmol each probe and RNAP …
Property: binding

Answered cases to consult:
Q: What binding value was documented for this sequence, ATTGCAGATTAATTAATAATGCTTTAAGTAATAACAAATAAATTTAGTTGACTATATGAACTAACCTAATATCCTAAATCTTGTTCAGTTATGTAAAATTAGGAGTTAAAATTA (double strand) [hup promoter probe] ?
Result: binds more weakly

Q: Can you share its binding? I mean this sequence: TTCATAAATTTATGAACTTGTGTTAAATGGGGTTGTAATCTTATGATTTGGTTATTATATCTGTGATTATAGTTTTGATTTTTATGTAAGGGGGCTATTTATGGCTGTTATAGGTATAGATTTAGGTAC (double strand) [dnaK promoter probe]
Result: binds

Q: For the sequence TAACTTACTTAAAAAATTAACTACTTAAATATCAACGATGTTTTCAGTATCAAGTCAATTGATTTTTTATGTGTTATGTAAACTGTTACAGAGTAATATAATATTTCTACTGGGTCCTATAAAGTTCTAACCTTGTAAACATTTGTGCAATATGTATTATAAAATTTATTGATTGATACTTGAAATTAGATTTCTTGATATTATATATGATCTTAGCTAGTAGTATCTGATGCTACTGATAATTTATTTTTTTATAGAGGTAG (double strand) [groE promoter probe] , what binding is on record?
Result: binds

Q: Value lookup for binding; key = CTGACGTAATATATTAAATTTTCCTTACAAAAGTTACCGATATTTTATACAAAAATTTATATTCTGACTTGCTTTTATATGACACTTCTACTATTGTTAATTTATTTGTCACTATTAGGTTATATATGAATTACA (double strand) [p28-Omp19 promoter probe]
Result: binds more weakly

Pending sequence:
Q: I have this sequence here, AAGCAAGTCTACTCATATTTTTATTAATTAAGTAGTAAAGTTAACTATAGATTTTATTAAAATTTTTATTCTAATCACTTTAAATATCAATTACTTTTGTTGTAAATTTGAAAGAAATTTTATATTCTAGACTTGCTTTTCTTTATTTCTTTCATTATTCTTAAATTTTTATTATCTTTTATAAAAGGTTTATTAACATG (double strand) [p28-Omp14 promoter probe] , and I need its recorded binding.
Result: binds more weakly
